biological target: Nuclear receptor ROR-gamma (Homo sapiens) (UniProt P51449); assay: qHTS assay to identify small molecule antagonists of the retinoid-related orphan receptor gamma (ROR-gamma) signaling pathway (AID 1159521; further: nearly all actives have a fitted effect of over 50% in size); details: Tet-on RORgamma CHO cells, RORE-luciferase, 16 h; series mostly up to 92.4 µM
Results filed as inconclusive are left out. Active and inactive are the calls of the source. The call rests on the fitted dose curve; in most records, active means well fitted inhibition curve with a large enough effect in the repeat runs; inconclusive means weak or mixed curves, or effect the other way; inactive means no such curve, though single readings can be large or run the other way.
Would you mind answering with one of these outcomes? 1 for active, -1 for inactive

Known results for compounds:
| COMPOUND | CLASS_LABEL |
| --- | --- |
| O=C(O)C1(c2ccc3c(c2)OC[C@H](Cc2ccc(-c4ccccc4)cc2)[C@H]3O)CCCC1 | 1 |
| CCOC(=O)COc1cc(-c2nn(C)c(OC(F)F)c2Cl)c(F)cc1Cl | -1 |
| Sc1ccccc1Cl | -1 |
| Cl/C=C\Cl | -1 |
| NC(=O)C(Cl)(Cl)Cl | -1 |
| C(=NC1CCCCC1)=NC1CCCCC1 | -1 |
| CCOP(O)OCC | -1 |
| c1ccoc1 | -1 |
| Clc1cc(C(Cl)(Cl)Cl)cnc1Cl | -1 |
| O=[N+]([O-])c1ccccc1CCl | -1 |

Query: Assay outcome for CCCCC(CC)COP(=O)(Oc1ccccc1)Oc1ccccc1 (stereo not drawn) : what was it?
Response: -1

Query: Proceed to `C[N+](C)(C)CCCl`
Response: -1

Query: What do you get for ClCC(Br)CBr (stereo not drawn) ?
Response: -1

Query: Also `Clc1cccc(SC2CCNCC2)n1` ?
Response: -1

Query: Then what about the compound `COc1c(C(C)(C)C)cc([N+](=O)[O-])c(C)c1[N+](=O)[O-]` ?
Response: -1

Query: # iterate: `O=C(CBr)Nc1ccc(Cl)cc1C(=O)c1ccccc1F`
Response: -1

Query: Could you do the same for `CCC(Br)(CC)C(=O)NC(N)=O` , please?
Response: -1

====

test: qHTS assay to identify small molecule antagonists of the estrogen receptor beta (ER-beta) signaling pathway - cell viability counter screen (AID 1259382); details: ER-beta-UAS-bla HEK293T viability, CellTiter-Glo luminescence, 16 h; series mostly up to 92.4 µM;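 further: HEK293T cells carrying ER-beta-UAS-bla reporter stimulated with estradiol; nearly all actives have a fitted effect of over 55% in size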
Results filed as inconclusive are left out. The source made the active and inactive calls. Calls come from the whole dose curve; as a rule, active = well fitted cell-killing curve with a large enough effect in the repeat runs; inconclusive = weak or mixed curves; inactive = flat fitted curve, though single readings scatter.
Lab note: assign the record to one of 1 for active, 0 for inactive

# count of solved cases: 5
| COMPOUND | CLASS_LABEL |
| --- | --- |
| CCCCCCCCOC(=O)c1ccc(C(=O)OCCCCCCCC)c(C(=O)OCCCCCCCC)c1 | 0 |
| O=C(CBr)c1ccccc1 | 0 |
| C=CCCl | 0 |
| CCc1ccc(C(=O)NN(C(=O)c2cc(C)cc(C)c2)C(C)(C)C)cc1 | 0 |
| O=C(O)CC(Cl)C(=O)O (stereo not given) | 0 |

Query: // return assay outcome for `CC(C)(OO)c1ccccc1`
Response: 0

Query: Quick one: `C=CC[C@]1(O)CC[C@H]2[C@@H]3CCC4=CC(=O)CCC4=C3C=C[C@@]21C`
Response: 0

Query: Similarly, `C[C@@H]1CC[C@H]2[C@@H](C)C(=O)O[C@@H]3O[C@@]4(C)CC[C@@H]1[C@]32OO4` ?
Response: 0

Query: Okay, and `CC(C)(CCl)C(=O)Cl` ?
Response: 0

Query: What do we get for `CC(C)O.CC(C)O.OCCN(CCO)CCO.OCCN(CCO)CCO.[Ti]` ?
Response: 0

Query: Another compound to check: `CCOS(C)(=O)=O`
Response: 0

Query: Same for `COC(=O)C(Cl)C(=O)OC`
Response: 0

Query: Repeat for the following compound: `N#Cc1cc(I)c(O)c(I)c1`
Response: 0

Query: Another: `[CH3][Sn]([CH3])([Cl])[Cl]`
Response: 0

Query: Now give it for `CN(N=O)c1ccc([N+](=O)[O-])cc1` too.
Response: 0

Query: What would you report for `CCCCOC(=O)c1ccccc1C(=O)OCc1ccccc1` ?
Response: 0

Origin of the recorded values: PubChem BioAssay (Tox21)
